Where these numbers come from: the supplement of paper PMC6555819

# System: THRa:RXRa (NR concentration 90 nM, RXRa partner concentration 90 nM)
# ASSAY_INFO: PBM binding z-score (relative to random genomic background probes); higher = stronger binding; sequences stand for … in GC…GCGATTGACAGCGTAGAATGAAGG
Parameter: PBM binding z-score. Scope: all listed entries.
Answer using only a numeral; do not append any unit.

SEQUENCE_CHAIN	EXPERIMENTAL_SYSTEM	PBM binding z-score
GTACCATGGTGAATAGGTCGTTGATGAGTAGGCG	THRa:RXRa (NR concentration 90 nM, RXRa partner concentration 90 nM)	0.133
TTACCAAGATGAAGGTCGTTGATCCCTCTGTAGA	THRa:RXRa (NR concentration 90 nM, RXRa partner concentration 90 nM)	0.726
CGTCAAAGTTCAATGTAACGTAACAGAAAGCAGC	THRa:RXRa (NR concentration 90 nM, RXRa partner concentration 90 nM)	1.64

Missing value: PBM binding z-score, THRa:RXRa (NR concentration 90 nM, RXRa partner concentration 90 nM), entry ATCGAAAGGTCGACGACGTGAGTATACACCGTTT . Fill in? 1.73

====

Catalogue of PBM binding z-score values
# Tested on: PXR:RXRa (NR concentration 270 nM, RXRa partner concentration 90 nM)
# ASSAY_INFO: PBM binding z-score (relative to random genomic background probes); higher = stronger binding; sequences stand for … in GC…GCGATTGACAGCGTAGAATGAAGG
Field format: numeric only.

// below: answered sequences
SEQUENCE_CHAIN	PBM binding z-score
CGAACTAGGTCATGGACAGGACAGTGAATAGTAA	1.65
CTCGAAAGGTCGGTTGCGGTGAGTATACGGATAA	1.4
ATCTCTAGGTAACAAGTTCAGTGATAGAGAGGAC	1.7
TCTATTAGTTGAAGGGCAACGGACGAGTCCGTTT	0.785
ATACCAAGGTGATCGTGAGGTCGGTGATACTAAC	0.944

Please give the measured PBM binding z-score for this sequence: TTGCCAAGGTGAAGGTCGTTGATCCCTCTGTAGA 1.21

What do we get for TCTAGCAGGCCAGAGGGTCACTCACGAGGTACGG ? 1.51

Try TCATATAGGTAATACAGGTAAAAGTCGGCATCTA next. 0.705

Okay, and TAGCCTAGGTCATCCGGGCCAGTATAGTGTCGGC ? 2.07

Also need TGAATGAGGTTATGAGATCAGGGAACGTTGCAAA , thanks. 0.684

Same for ATCGAGAGGTCGAGGTGAGTATAGAGAAAGGGAA 1.9

Also ATCTCTAGGTAAAGATACTTCAGTGAATGCAAAT ? 0.635

====

# Lookup of reported PBM binding z-score keyed by entry
# System: RXRa DBDmut IVT, anti-RXR (DBD mutation: RXRa K156A/R161A, NR concentration 90 nM)
# ASSAY_INFO: PBM binding z-score (relative to random genomic background probes); higher = stronger binding; sequences stand for … in GC…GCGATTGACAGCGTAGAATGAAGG
Output: the number by itself.

Consider the following illustrative entries.
SEQUENCE_CHAIN	PBM binding z-score
GCGAGCAGGCCATTTGGGTCACTCAATGACGGGC	0.115
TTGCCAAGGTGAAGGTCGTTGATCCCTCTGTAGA	0.0935
CTCGTAAGGTCGTGCTCAGGTGAGTATACCAAAC	2.39

Kindly state the measured PBM binding z-score obtained for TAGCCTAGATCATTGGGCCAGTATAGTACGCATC with RXRa DBDmut IVT, anti-RXR (DBD mutation: RXRa K156A/R161A, NR concentration 90 nM). -0.443
